Provide the recorded Kass × 10^6 (L/mole) Human Thrombin for the entries that follow.
assay system: Human Thrombin (Homo sapiens, UniProt P00734)
measurement protocol: Inhibition of the amidase activity of thrombin (Kass)
Assay type: biochemical
condition parameters: chromogenic substrate N-benzoyl-Phe-Val-Arg-p-nitroanilide; mean over range of concentrations

Using the record for Cl.N=C(N)c1cccc(CNC(=O)[C@@H]2CCCN2C(=O)[C@H](N)Cc2ccccc2)c1 [Example 16, D-Phe-Pro-m-NHCH2 C6 H4 C(NH)NH2.0.75HCl] , report its Kass × 10^6 (L/mole) Human Thrombin.
0.97 × 10^6 L/mole

Same thing, different molecule: Cl.O=C(O)CN[C@H](CC1CCCCC1)C(=O)N1CCC[C@H]1C(=O)NCCCC1=CCNCC1
0.24 × 10^6 L/mole

Same thing, different molecule: CCS(=O)(=O)N[C@H](Cc1ccccc1)C(=O)N1CCC[C@H]1C(=O)NCCc1ccc(C(=N)N)cc1
13. × 10^6 L/mole

Same thing, different molecule: N=C(N)N1CCC(CCNC(=O)[C@@H]2CCCN2C(=O)[C@@H](CC2CCCCC2)NCC(=O)O)CC1
39 × 10^6 L/mole

Same thing, different molecule: N=C(N)Nc1cccc(CCNC(=O)[C@@H]2CCCN2C(=O)[C@@H]2NCC[C@@H]3CCCC[C@@H]32)c1
0.01 × 10^6 L/mole

Same thing, different molecule: N=C(N)c1cccc(CCNC(=O)[C@@H]2CCCN2C(=O)[C@@H]2NCC[C@@H]3CCCC[C@@H]32)c1
0.76 × 10^6 L/mole

Same thing, different molecule: Nc1ccc(CNC(=O)[C@@H]2CCCN2C(=O)[C@@H](CC2CCCCC2)NCC(=O)O)cc1
7.6 × 10^6 L/mole
